- System: Candida albicans ATCC 2002
measured.attribute: MIC (µM)
Quick note: give the figure in µM, leave out the unit.

### Prompt For the record CC[C@H](C)[C@H](NC(=O)CN)C(=O)N[C@@H](Cc1ccccc1)C(=O)NCC(=O)N[C@@H](CCCCN)C(=O)N[C@H](C(=O)N[C@@H](CC(C)C)C(=O)NCC(=O)N[C@H](C(=O)NCC(=O)N[C@@H](CCCCN)C(=O)N[C@@H](CCCCN)C(=O)N[C@H](C(=O)N[C@@H](CC(C)C)C(=O)N[C@H]1CSSC[C@@H](C(=O)O)NC(=O)[C@H](CCSC)NC(=O)CNC(=O)[C@H](CO)NC(=O)[C@H](CC(C)C)NC(=O)[C@H](CCC(=O)O)NC1=O)[C@@H](C)O)C(C)C)[C@@H](C)CC [GIFGKILGVGKKTLCELSGMC] , what value of MIC is listed for Candida albicans ATCC 2002?
### Response 1.49

###

This section presents compounds with their documented MIC values.
- Test system: Pseudomonas aeruginosa ATCC 27853
- assay.method.text: ≥ marks a high value that may be exact or a test limit, other limits are often not marked, values filed in µg/mL are converted to µM
Give the quantity in µM, number only.

- chemical.smiles: "CC(C)C[C@H](NC(=O)[C@H](CCCCN)NC(=O)[C@H](Cc1ccccc1)NC(=O)[C@H](CC(C)C)NC(=O)[C@H](CC(C)C)NC(=O)[C@@H]1CCCN1C(=O)[C@H](CCCCN)NC(=O)[C@H](CC(C)C)NC(=O)[C@H](CCCCN)NC(=O)[C@@H]1CCCN1C(=O)[C@H](CC(C)C)NC(=O)[C@H](CC(C)C)NC(=O)[C@H](CC(C)C)NC(=O)[C@H](CCCCN)NC(=O)[C@H](CC(C)C)NC(=O)[C@H](CC(C)C)NC(=O)[C@H](CCCCN)NC(=O)[C@@H](N)Cc1ccc(O)cc1)C(N)=O"
  unit.descriptor: "µM"
  MIC: 4.54

### Prompt Kindly state the measured MIC obtained for CC[C@H](C)[C@@H]1NC(=O)CNC(=O)[C@H](CCCN=C(N)N)NC(=O)[C@H](Cc2ccc(O)cc2)NC(=O)[C@@H]2CSSC[C@H](NC1=O)C(=O)N[C@@H](Cc1ccc(O)cc1)C(=O)N[C@@H](CCCN=C(N)N)C(=O)N[C@@H](CCCN=C(N)N)C(=O)N[C@H](C(=O)N[C@@H](CCCN=C(N)N)C(=O)O)CSSC[C@H](NC(=O)[C@H](Cc1c[nH]c3ccccc13)NC(=O)[C@@H](N)CCCCN)C(=O)N[C@@H](Cc1ccccc1)C(=O)N[C@@H](CCCN=C(N)N)C(=O)N[C@@H](C)C(=O)N2 with Pseudomonas aeruginosa ATCC 27853.
### Response 0.446

### Prompt Please state recorded MIC (tested on Pseudomonas aeruginosa ATCC 27853) of NC(=O)[C@H](Cc1c[nH]c2ccccc12)NC(=O)[C@H](Cc1c[nH]c2ccccc12)NC(=O)[C@H](Cc1c[nH]c2ccccc12)NC(=O)[C@H](Cc1c[nH]c2ccccc12)NC(=O)[C@@H]1CCCN1C(=O)[C@H](CCCN=C(N)N)NC(=O)[C@@H]1CCCN1C(=O)[C@H](CCCN=C(N)N)NC(=O)[C@@H]1CCCN1C(=O)[C@H](CCCN=C(N)N)NC(=O)[C@@H]1CCCN1C(=O)[C@H](CCCN=C(N)N)NC(=O)[C@@H](N)CCCN=C(N)N
### Response 33.1

### Prompt What measured MIC is associated with NC(=O)[C@H](CCCN=C(N)N)NC(=O)[C@H](Cc1c[nH]c2ccccc12)NC(=O)[C@H](Cc1c[nH]c2ccccc12)NC(=O)[C@H](CCCN=C(N)N)NC(=O)[C@H](Cc1c[nH]c2ccccc12)NC(=O)[C@H](Cc1c[nH]c2ccccc12)NC(=O)[C@@H](N)CCCN=C(N)N on Pseudomonas aeruginosa ATCC 27853?
### Response 6.09
